Experimental protocol: Enteral absorption in vivo (rats): intraduodenal injection, antibiotic plasma level by agar-plate bioassay
Applied conditions: female, rat, plasma, 5 mg/0,5 ml, Cmax, Dosis = 5 mg/0,5 ml, Labrasol + Laureth-12 (weight ratio 8:1)
Measured attribute: Cmax (µg/mL)

# Structure smiles, Measured attribute, Unit, Readout value
measured = [
    ("CO/N=C(\\C(=O)N[C@@H]1C(=O)N2C(C(=O)O)=C(CSc3nc(=O)c(=O)[nH]n3C)CS[C@H]12)c1csc(N)n1", "Cmax", "µg/mL", 106),
]

====

Experimental protocol: Enteral absorption in vivo (rats): intraduodenal injection, antibiotic plasma level by agar-plate bioassay
Applied conditions: rat, in vivo, 5 mg, Cmax, Dosis = 5 mg/0,5 ml, Acconon Con + Laureth-12 (weight ratio 8:1)

# Structure smiles, Cmax (ng/mL)
rows = [
    ("CC1(C)S[C@@H]2[C@H](NC(=O)Cc3ccccc3)C(=O)N2[C@H]1C(=O)O", 3500),
]

====

Listed below: Cmax values for each entry.
Experimental protocol: Rectal absorption in vivo (monkeys): suppositories, plasma level
Applied conditions: both sexes, monkey, plasma, rectal suppository, Kontrolle ohne Resorptionsverstärker, read-out: Cmax Bereich

# Structure smiles, Cmax
records = [
    ("CO/N=C(\\C(=O)N[C@@H]1C(=O)N2C(C(=O)O)=C(CSc3nc(=O)c(=O)[nH]n3C)CS[C@H]12)c1csc(N)n1", "0.3 to 9 µg/mL"),
    ("Cn1nnnc1SCC1=C(C(=O)O)N2C(=O)[C@@H](NC(=O)[C@H](O)c3ccccc3)[C@H]2SC1", "2.3 to 4.6 µg/mL"),
]

====

Experimental protocol: Enteral absorption in vivo (rats): intraduodenal injection, antibiotic plasma level by agar-plate bioassay
Applied conditions: female, rat, in vivo, 5 mg/0,5 ml, Cmax, Dosis = 5 mg/0,5 ml, Kontrolle Wasser, no absorption enhancer
From the text: Weibliche Ratten im Gewicht von etwa 250 g wurden über Nacht fasten gelassen und mit Metofan anästhesiert. Die Antibiotika wurden in Lösung mit oder ohne Resorptionsver, stärker nach Bauchschnitt in das Duodenum unterhalb des Magenausgangs injiziert. Für Vergleichszwecke wurde die Lösung alternativ intravenös in die Schwanzvene appliziert. Die Konzentration des Antibiotikums im Plasma der Ratte wurde nach verschiedenen Zeitintervallen nach intravenöser oder enteraler Verabreichung bestimmt. […]

# Compound, Unit, Cmax
measured = [
    ("CN[C@H](CC(C)C)C(=O)N[C@H]1C(=O)N[C@@H](CC(N)=O)C(=O)N[C@H]2C(=O)N[C@H]3C(=O)N[C@H](C(=O)N[C@H](C(=O)O)c4cc(O)cc(O)c4-c4cc3ccc4O)[C@H](O)c3ccc(c(Cl)c3)Oc3cc2cc(c3O[C@@H]2O[C@H](CO)[C@@H](O)[C@H](O)[C@H]2O[C@H]2C[C@](C)(N)[C@H](O)[C@H](C)O2)Oc2ccc(cc2Cl)[C@H]1O [Vancomycin]", "ng/mL", 2900),
]

====

Experimental protocol: Enteral absorption in vivo (rats): intraduodenal injection, antibiotic plasma level by agar-plate bioassay
Applied conditions: female, rat, plasma, 5 mg/0,5 ml, Cmax, Dosis = 5 mg/0,5 ml, Natriumcaprylat (30%) + Laureth-12 (weight ratio 8:1)

# Structure smiles, Unit, Cmax
measured = [
    ("CO/N=C(\\C(=O)N[C@@H]1C(=O)N2C(C(=O)O)=C(CSc3nc(=O)c(=O)[nH]n3C)CS[C@H]12)c1csc(N)n1", "µg/mL", 53.7),
]

====

Experimental protocol: Rectal absorption in vivo (monkeys): suppositories, plasma level
Applied conditions: both sexes, monkey, plasma, 600 mg, rectal, Kontrollwert: 600 mg Ceftriaxonnatrium in suppository mass without absorption enhancer, read-out: Cmax-Bereich

# Structure smiles, Cmax
rows = [
    ("CO/N=C(\\C(=O)N[C@@H]1C(=O)N2C(C(=O)O)=C(CSc3nc(=O)c(=O)[nH]n3C)CS[C@H]12)c1csc(N)n1", "300 to 9000 ng/mL"),
]

====

Experimental protocol: Oral absorption in vivo (dogs): enteric-coated hard gelatin capsules by gavage, plasma level
Applied conditions: male, beagle, dog, plasma, 300 mg per capsule, formulation 300 mg Ceftriaxonnatrium, 200 mg Natriumcaprylat, 75 mg Laureth-12, 415 mg Witepsol H15

# Structure smiles, Cmax [ng/mL]
data = [
    ("CO/N=C(\\C(=O)N[C@@H]1C(=O)N2C(C(=O)O)=C(CSc3nc(=O)c(=O)[nH]n3C)CS[C@H]12)c1csc(N)n1", 14400),
]

====

Experimental protocol: Enteral absorption in vivo (rats): intraduodenal injection, antibiotic plasma level by agar-plate bioassay
Applied conditions: female, rat, plasma, 5 mg/0,5 ml, Cmax, Dosis = 5 mg/0,5 ml, Acconon Con + Laureth-12 (weight ratio 8:1)

# Structure smiles, Unit, Cmax
data = [
    ("CO/N=C(\\C(=O)N[C@@H]1C(=O)N2C(C(=O)O)=C(CSc3nc(=O)c(=O)[nH]n3C)CS[C@H]12)c1csc(N)n1", "ng/mL", 38800),
]

====

Measured % Bioverfügbarkeit by item
Experimental protocol: Rectal absorption in vivo (monkeys): suppositories, plasma level
Applied conditions: rectal suppository, Mit Resorptionsverstärker System: 500 mg Antibiotikum, 125 mg Laureth-12, 250 mg Labrasol, 1125 mg Witepsol H15
Measured attribute: % Bioverfügbarkeit

# Structure smiles, Measured attribute, Readout value
measured = [
    ("CO[C@@]1(NC(=O)Cc2cccs2)C(=O)N2C(C(=O)O)=C(COC(N)=O)CS[C@@H]21", "% Bioverfügbarkeit", "77.0 ± 22.5%"),
    ("Cn1nnnc1SCC1=C(C(=O)O)N2C(=O)[C@@H](NC(=O)[C@H](O)c3ccccc3)[C@H]2SC1", "% Bioverfügbarkeit", "46.5 ± 16.6%"),
    ("CO/N=C(\\C(=O)N[C@@H]1C(=O)N2C(C(=O)O)=C(CSc3nc(=O)c(=O)[nH]n3C)CS[C@H]12)c1csc(N)n1", "% Bioverfügbarkeit", "31.5 ± 13.1%"),
    ("CC1(C)S[C@@H]2[C@H](NC(=O)Cc3ccccc3)C(=O)N2[C@H]1C(=O)O", "% Bioverfügbarkeit", "38.2 ± 26.1%"),
]

====

Experimental protocol: Enteral absorption in vivo (rats): intraduodenal injection, antibiotic plasma level by agar-plate bioassay
Applied conditions: female, rat, in vivo, 5 mg/0,5 ml, Cmax, Dosis = 5 mg/0,5 ml, Natriumcaprylat (30%) + Laureth-12 (weight ratio 8:1)
Measured attribute: Cmax (ng/mL)

# Structure smiles, Measured attribute, Readout value
data = [
    ("CN[C@H](CC(C)C)C(=O)N[C@H]1C(=O)N[C@@H](CC(N)=O)C(=O)N[C@H]2C(=O)N[C@H]3C(=O)N[C@H](C(=O)N[C@H](C(=O)O)c4cc(O)cc(O)c4-c4cc3ccc4O)[C@H](O)c3ccc(c(Cl)c3)Oc3cc2cc(c3O[C@@H]2O[C@H](CO)[C@@H](O)[C@H](O)[C@H]2O[C@H]2C[C@](C)(N)[C@H](O)[C@H](C)O2)Oc2ccc(cc2Cl)[C@H]1O", "Cmax", 9800),
]

====

Experimental protocol: Rectal absorption in vivo (monkeys): suppositories, plasma level
Applied conditions: rectal suppository, Kontrolle ohne Resorptionsverstärker
Measured attribute: % Bioverfügbarkeit

# Compound, Measured attribute, Readout value
rows = [
    ("CC1(C)S[C@@H]2[C@H](NC(=O)Cc3ccccc3)C(=O)N2[C@H]1C(=O)O [Penicillin G]", "% Bioverfügbarkeit", "17.4 ± 8.0%"),
    ("CO[C@@]1(NC(=O)Cc2cccs2)C(=O)N2C(C(=O)O)=C(COC(N)=O)CS[C@@H]21 [Cefoxitin]", "% Bioverfügbarkeit", "0%"),
    ("Cn1nnnc1SCC1=C(C(=O)O)N2C(=O)[C@@H](NC(=O)[C@H](O)c3ccccc3)[C@H]2SC1 [Cefamandole, Cefamandol]", "% Bioverfügbarkeit", "6.0 ± 2.3%"),
    ("CO/N=C(\\C(=O)N[C@@H]1C(=O)N2C(C(=O)O)=C(CSc3nc(=O)c(=O)[nH]n3C)CS[C@H]12)c1csc(N)n1 [Ceftriaxon]", "% Bioverfügbarkeit", "4.3 ± 2.8%"),
]

====

Experimental protocol: Oral absorption in vivo (monkeys): enteric-coated hard gelatin capsules by gavage, plasma bioassay
Applied conditions: monkey, plasma, 1200 mg, 4 enteric-coated capsules each 300 mg Ceftriaxonnatrium, 225 mg Labrasol, 75 mg Laureth-12, 380 mg Witepsol H15, read-out: Cmax-Bereich
Measured attribute: Cmax

# Compound, Measured attribute, Readout value
measured = [
    ("CO/N=C(\\C(=O)N[C@@H]1C(=O)N2C(C(=O)O)=C(CSc3nc(=O)c(=O)[nH]n3C)CS[C@H]12)c1csc(N)n1 [Ceftriaxon]", "Cmax", "5500 to 59800 ng/mL"),
]

====

Experimental protocol: Enteral absorption in vivo (rats): intraduodenal injection, antibiotic plasma level by agar-plate bioassay
Applied conditions: rat, in vivo, 5 mg, Cmax, Dosis = 5 mg/0,5 ml, Natriumcaprylat (30%) + Laureth-12 (weight ratio 8:1)

# Molecule, Unit, Cmax
measured = [
    ("CC1(C)S[C@@H]2[C@H](NC(=O)Cc3ccccc3)C(=O)N2[C@H]1C(=O)O [Penicillin G]", "ng/mL", 7400),
]
